System: Xanthium strumarium
Experiment: Post-emergence herbicidal action
Type: in vivo
Conditions: 80 g of a.i./ha, read-out: Herbicidal activity in % against XANST
PROPERTY: pest or weed control at 80 g/ha (%)

>>> test_value("Cn1nc(C2CC2)c(C(=O)c2ccc(Cl)c(S(C)(=O)=O)c2Cl)c1O [drawing 58, reference compound]")
70
>>> test_value("Cn1nc(C2CC2)c(C(=O)c2ccc(Cl)c(S(=O)(=O)CC3CC3)c2Cl)c1O [drawing 57]")
90
>>> test_value("COCCSc1c(S(C)(=O)=O)ccc(C(=O)c2c(C3CC3)nn(C)c2O)c1C")
90
>>> test_value("CSc1c(S(C)(=O)=O)ccc(C(=O)c2c(C3CC3)nn(C)c2O)c1C [drawing 30, reference compound]")
60
>>> test_value("CCSc1c(S(C)(=O)=O)ccc(C(=O)c2c(C3CC3)nn(C)c2O)c1C [reference compound]")
80
>>> test_value("Cc1c(C(=O)c2c(C3CC3)nn(C)c2O)ccc(S(C)(=O)=O)c1SCC1CC1 [drawing 29]")
90
